- Measured Target: Thymidylate synthase (TS) (Homo sapiens, UniProt P04818)
- Sequence (P04818 whole entry): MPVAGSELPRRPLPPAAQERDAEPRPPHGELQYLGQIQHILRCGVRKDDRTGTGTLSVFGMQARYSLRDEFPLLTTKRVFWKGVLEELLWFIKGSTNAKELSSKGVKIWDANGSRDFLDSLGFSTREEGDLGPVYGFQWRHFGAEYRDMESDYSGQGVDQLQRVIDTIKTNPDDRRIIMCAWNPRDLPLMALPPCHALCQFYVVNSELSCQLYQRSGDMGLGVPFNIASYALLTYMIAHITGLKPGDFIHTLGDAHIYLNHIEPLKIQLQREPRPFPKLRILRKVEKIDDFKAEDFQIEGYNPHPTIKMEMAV
- Assay Notes: Inhibition of human TS at 500 uM relative to control
- Conditions: human thymidylate synthase enzyme (single protein)
Quantity Name: inhibition at 500 µM

According to the records, this compound Cc1cc(Cl)cc(Br)c1OCC(O)CNCc1ccc2c(c1)OCO2 (stereo unspecified) displays inhibition at 500 µM of 50%

====

- System: Cryptosporidium hominis
- Assay Notes: Inhibition of Cryptosporidium hominis dihydrofolate reductase assessed as H4F formation at 500 uM preincubated for 30 mins followed by addition of radiolabelled H2F and dUMP by HPLC-coupled flow scintillation analysis relative to control
Quantity Name: inhibition (%)
A number alone suffices; assume %.

[
  {
    "Compound": "OC(CNCc1ccc2c(c1)OCO2)COc1ccc(-c2ccccc2)cc1 (centres undefined)",
    "inhibition / %": 26
  },
  {
    "Compound": "OC(CNCc1ccc2c(c1)OCO2)COc1ccc(Cl)c(Cl)c1 (centres undefined)",
    "inhibition / %": 60
  },
  {
    "Compound": "Cc1cc(Cl)cc(Br)c1OCC(O)CNCc1ccc2c(c1)OCO2 (centres undefined)",
    "inhibition / %": 19
  }
]

Next, consider the following compound.
According to the records, this compound OC(CNCc1ccc2c(c1)OCO2)COc1ccc(-c2csnn2)cc1 (centres undefined) displays inhibition of 6
